- TARGET DESC: JARID1B (Homo sapiens, UniProt Q9UGL1)
- Construct: The FLAG tagged full length JARID1B enzyme was expressed in Sf21 insect cells using FLAG-JARID1B baculoviruses; FLAG (N); made in house; host or cells: Sf21 insect cells (baculovirus)
- Sequence (Q9UGL1 whole entry): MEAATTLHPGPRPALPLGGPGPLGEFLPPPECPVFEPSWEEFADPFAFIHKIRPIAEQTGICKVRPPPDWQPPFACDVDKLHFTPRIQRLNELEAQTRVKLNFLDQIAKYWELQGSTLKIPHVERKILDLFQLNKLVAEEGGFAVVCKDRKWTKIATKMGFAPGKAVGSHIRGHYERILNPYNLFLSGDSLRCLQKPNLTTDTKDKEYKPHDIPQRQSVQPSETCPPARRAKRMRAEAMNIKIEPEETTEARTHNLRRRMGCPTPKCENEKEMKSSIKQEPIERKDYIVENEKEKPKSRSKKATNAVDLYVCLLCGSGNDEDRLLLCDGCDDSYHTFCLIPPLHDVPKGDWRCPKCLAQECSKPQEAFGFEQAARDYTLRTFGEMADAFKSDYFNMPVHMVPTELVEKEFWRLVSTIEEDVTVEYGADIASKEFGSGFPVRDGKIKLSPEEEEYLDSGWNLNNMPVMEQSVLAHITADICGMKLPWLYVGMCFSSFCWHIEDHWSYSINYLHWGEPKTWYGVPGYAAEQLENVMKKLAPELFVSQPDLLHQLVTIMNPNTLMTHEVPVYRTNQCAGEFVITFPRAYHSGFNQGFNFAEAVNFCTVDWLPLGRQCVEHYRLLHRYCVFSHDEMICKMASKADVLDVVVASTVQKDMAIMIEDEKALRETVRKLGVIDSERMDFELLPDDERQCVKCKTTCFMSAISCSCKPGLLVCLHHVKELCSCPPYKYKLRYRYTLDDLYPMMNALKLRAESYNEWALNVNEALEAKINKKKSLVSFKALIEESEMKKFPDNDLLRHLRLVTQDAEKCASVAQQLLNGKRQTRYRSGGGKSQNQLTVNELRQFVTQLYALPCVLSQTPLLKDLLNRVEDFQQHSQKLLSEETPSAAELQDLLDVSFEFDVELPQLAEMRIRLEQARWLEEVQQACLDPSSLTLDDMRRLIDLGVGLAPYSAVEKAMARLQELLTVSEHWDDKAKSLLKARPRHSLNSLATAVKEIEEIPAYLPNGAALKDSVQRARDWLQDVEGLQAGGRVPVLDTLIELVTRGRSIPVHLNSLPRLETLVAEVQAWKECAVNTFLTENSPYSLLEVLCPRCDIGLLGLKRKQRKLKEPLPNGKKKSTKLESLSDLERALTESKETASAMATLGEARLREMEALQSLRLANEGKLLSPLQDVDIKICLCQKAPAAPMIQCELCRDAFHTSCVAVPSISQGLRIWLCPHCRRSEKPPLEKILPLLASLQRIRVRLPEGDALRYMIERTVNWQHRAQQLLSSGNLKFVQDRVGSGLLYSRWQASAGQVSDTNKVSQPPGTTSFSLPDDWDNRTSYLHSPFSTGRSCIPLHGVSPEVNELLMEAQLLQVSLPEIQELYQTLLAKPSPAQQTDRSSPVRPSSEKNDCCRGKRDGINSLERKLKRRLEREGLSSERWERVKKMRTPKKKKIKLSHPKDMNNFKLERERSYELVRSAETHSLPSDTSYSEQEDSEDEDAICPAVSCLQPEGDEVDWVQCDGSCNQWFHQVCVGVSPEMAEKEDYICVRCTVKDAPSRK
- TEST DESCRIPTION: FLAG-JARID1B histone demethylase assay with AlphaScreen detection (HTS and dose response);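 for Assay Signal (percent): compound tested at 20 µM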
- Type: biochemical
- RUN PARAMETERS: validation of HTS actives; effect of compound in JARID1B AlphaScreen assay
Here, each record is paired with measured Assay Signal (percent) data.
Just the number plus its unit, please.

MOLECULE: CC(=O)NNC(=O)c1ccncc1
TARGET DESC: JARID1B (Homo sapiens, UniProt Q9UGL1)
READING: 92.06%
--
MOLECULE: Cc1c2c(=O)n(-c3nc4ccccc4s3)[nH]c2cc(=O)n1Cc1ccc(C(=O)O)cc1
TARGET DESC: JARID1B (Homo sapiens, UniProt Q9UGL1)
READING: 22.52%
--
MOLECULE: c1ccc2c(NCc3ccncc3)cccc2c1
TARGET DESC: JARID1B (Homo sapiens, UniProt Q9UGL1)
READING: 89.97%
--
MOLECULE: S=c1[nH]cnc2nc[nH]c12 [YU033892, MERCAPTOPURINE, reference compound]
TARGET DESC: JARID1B (Homo sapiens, UniProt Q9UGL1)
READING: 33.79%

Now for a further molecule.
**Query** Short answer please: Assay Signal (percent), JARID1B (Homo sapiens, UniProt Q9UGL1), entry Cc1ccc(C(C#N)=Cc2ccc(N3CCOCC3)o2)cc1 (single isomer, unassigned)
**Result** 40.44%

---

Consider the following molecules and their measured Artifact Signal (percent) readings.
- TEST DESCRIPTION: AlphaScreen counterscreen against bio-H3K4me2 peptide in the absence of enzyme (artifact signal);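 note: counterscreen run without enzyme against bio-H3K4me2 peptide to remove false positive hits from the JARID1 demethylase AlphaScreen screen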
- RUN PARAMETERS: effect of the compound when incubated with bio-H3K4me2 peptide (counterscreen, no enzyme)
Number in %, nothing else.

MOLECULE: Cc1noc2c1C(c1ccc(O)c(O)c1)C1=C(CC(C)(C)CC1=O)N2 (stereo not shown) [YU185530]
READING: 1.72
--
MOLECULE: CCCN1CCN(C(=O)c2ccncc2)CC1 [YU145702]
READING: −1.53

**Query** What does the data say about its Artifact Signal (percent)? Entry: O=C(O)c1cc(N(Cc2ccccc2O)Cc2cc(O)ccc2O)ccc1O [YU154829, LAVENDUSTIN A, reference compound]
**Result** 8.32

**Query** Which Artifact Signal (percent) reading was recorded for the molecule O=C1C=C2C[C@@]3(O)COc4cc(O)ccc4C3=C2C=C1O [YU155025, BRAZILEIN, reference compound] ?
**Result** −0.14

---

- TARGET DESC: JARID1B (Homo sapiens, UniProt Q9UGL1)
- Construct: The FLAG tagged full length JARID1B enzyme was expressed in Sf21 insect cells using FLAG-JARID1B baculoviruses; FLAG (N); made in house; host or cells: Sf21 insect cells (baculovirus)
- TEST DESCRIPTION: FLAG-JARID1B histone demethylase assay with AlphaScreen detection (HTS and dose response);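 for Assay Signal (percent): compound tested at 20 µM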
- Assay type: biochemical
- RUN PARAMETERS: validation of HTS actives; effect of compound in JARID1B AlphaScreen assay
Structures can show the parent of a compound that is named as a salt.
Assay Signal (percent) values by entry
Number plus unit, in that order.

COMPOUND: O=c1c(O[C@@H]2O[C@H](CO)[C@@H](O)[C@H](O)[C@H]2O)c(-c2ccc(O)c(O)c2)oc2cc(O)cc(O)c12 [YU221011, Isoquercitrin, reference compound]
TARGET DESC: JARID1B (Homo sapiens, UniProt Q9UGL1)
Assay Signal (percent): 52.16%
--
COMPOUND: O=C(Nc1ccc(N2CCC(c3ccccc3)C2)c(C(=O)O)c1)c1cccc(Cl)c1 (centres unmarked) [YU208239]
TARGET DESC: JARID1B (Homo sapiens, UniProt Q9UGL1)
Assay Signal (percent): 36.49%

**Query** Reported Assay Signal (percent) for C/C1=C2/[N-][C@H]([C@H](CC(N)=O)[C@@]2(C)CCC(=O)NC[C@@H](C)OP(=O)([O-])O[C@H]2[C@@H](O)[C@@H](n3cnc4cc(C)c(C)cc43)O[C@@H]2CO)[C@]2(C)N=C(/C(C)=C3N=C(/C=C4N=C1[C@@H](CCC(N)=O)C\4(C)C)[C@@H](CCC(N)=O)[C@]\3(C)CC(N)=O)[C@@H](CCC(N)=O)[C@]2(C)CC(N)=O.[Co] [YU034137, COBALAMINE, reference compound] : what is it?
**Result** 27.06%

**Query** Entry under review: CCn1c(S)nnc1-c1ccncc1 [YU144949] . Reported Assay Signal (percent)?
**Result** 40.70%

**Query** Please look up its Assay Signal (percent): O=C1C=C2C[C@@]3(O)COc4cc(O)ccc4C3=C2C=C1O [YU155025, BRAZILEIN, reference compound]
**Result** 9.12%

**Query** What value of measured Assay Signal (percent) is listed for O=[N+]([O-])c1cc(O)c(O)c([N+](=O)[O-])c1 [YU034463, 3,5-DINITROCATECHOL, reference compound] ?
**Result** 38.78%

**Query** Reported Assay Signal (percent), compound C[n+]1cc2c3c(ccc2c2ccc4cc5c(cc4c21)OCO5)OCO3 [YU033662, SANGUINARINE SULFATE, reference compound] : ____
**Result** 67.85%

**Query** What does the data say about its Assay Signal (percent)? Entry: C=CCN(CC=C)C(=S)Nc1sc(C)c(C)c1C(=O)OC [YU153003]
**Result** 23.56%

**Query** Which Assay Signal (percent) is reported for this compound? CCN(CC)C(=S)SSC(=S)N(CC)CC [YU035331, reference compound]
**Result** 36.77%

**Query** Quick one: Assay Signal (percent) of Cc1c2c(=O)n(-c3nc4ccccc4s3)[nH]c2cc(=O)n1CCN1CCOCC1 [YU172087] ?
**Result** 14.44%

**Query** Query (compound): COc1ccc(CNn2c(C)nnc2S)cc1 [YU146438] ; field requested: Assay Signal (percent)
**Result** 50.33%

---

- TARGET DESC: JARID1B (Homo sapiens, UniProt Q9UGL1)
- Construct: The FLAG tagged full length JARID1B enzyme was expressed in Sf21 insect cells using FLAG-JARID1B baculoviruses; FLAG (N); made in house; host or cells: Sf21 insect cells (baculovirus)
- TEST DESCRIPTION: FLAG-JARID1B histone demethylase assay with AlphaScreen detection (HTS and dose response);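 for Assay − Artifact Signal (percent): compound tested at 20 µM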
- Format: biochemical
- RUN PARAMETERS: assay signal minus artifact signal
Where a name gives a salt, the structure may show the parent alone.
# note: boundary value 40% maps to rule not met; Assay − Artifact Signal (percent) below it maps to rule met

**Query** Field: below-cutoff. Rule: recorded Assay − Artifact Signal (percent) strictly less than 40%. Subject: NNC(=O)c1ccncc1 [YU033872, ISONIAZID, reference compound]
**Result** rule not met

**Query** In plain terms, does CC(C)NCC(O)c1ccc(O)c(O)c1 (centres unmarked) [YU033874, ISOPROTERENOL HYDROCHLORIDE, reference compound] come in under 40% for Assay − Artifact Signal (percent)?
**Result** rule met

**Query** Problem: For the molecule Cc1cc(C(=O)Nc2c(C)n(C)n(-c3ccccc3)c2=O)c(C)o1 , is Assay − Artifact Signal (percent) under 40%?
**Result** rule met

**Query** Identify whether the molecule CC(NC(=S)Nc1ccc2c(c1)OCO2)c1ccncc1 (centres unmarked) records Assay − Artifact Signal (percent) below 40%.
**Result** rule met

**Query** Input C[n+]1cc2c3c(ccc2c2ccc4cc5c(cc4c21)OCO5)OCO3.O=S(=O)([O-])O [YU155443, SANGUINARINE SULFATE, reference compound] ; condition: Assay − Artifact Signal (percent) strictly below 40%. Does it hold?
**Result** rule met

**Query** Field: below-cutoff. Rule: recorded Assay − Artifact Signal (percent) strictly less than 40%. Subject: CC(=O)Nc1ccccc1NC(=O)c1ccc2c(c1)OCO2
**Result** rule met

---

- TARGET DESC: JARID1B (Homo sapiens, UniProt Q9UGL1)
- Construct: The FLAG tagged full length JARID1B enzyme was expressed in Sf21 insect cells using FLAG-JARID1B baculoviruses; FLAG (N); made in house; host or cells: Sf21 insect cells (baculovirus)
- TEST DESCRIPTION: FLAG-JARID1B histone demethylase assay with AlphaScreen detection (HTS and dose response);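 note: FLAG-tagged JARID1B at 4 nM acting on a biotinylated H3K4me3 peptide, demethylation read by AlphaScreen luminescence, with hits checked against bio-H3K4me2 without enzyme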
- Type: biochemical
- RUN PARAMETERS: dose response at 15 μM (low) Fe (II); read-out: IC50 (μM) low Fe (II)
QUANTITY NAME: IC50 (µM)
Kindly answer with a numeric value in µM, unit omitted.

The cases that follow already have their IC50 on record.
COMPOUND: O=c1c2ccccc2[se]n1-c1ccccc1 [Ebselen, ebselen, reference compound]
IC50 / µM: 7.63
--
COMPOUND: Cn1c(/C(C#N)=C/c2ccncc2)nc2ccccc21
IC50 / µM: 1.8
--
COMPOUND: N#C/C(=C\c1ccncc1)c1nc2cc(C(F)(F)F)ccc2s1
IC50 / µM: 1.66
--
COMPOUND: O=c1ccc2cc(O)c(O)cc2o1 [Esculetin, esculetin, reference compound]
IC50 / µM: 2.57
--
COMPOUND: O=C(O)/C=C/c1ccc(O)c(O)c1 [Caffeic acid, reference compound]
IC50 / µM: 1.71

**Query** Given the entry Cc1ccc(-n2sc3ccccc3c2=O)cc1 , report its measured IC50.
**Result** 3.17
